# tgt: human leucocyte elastase (Homo sapiens, UniProt P08246)
# Construct: human neutrophil elastase extracted from purulent sputum
# Sequence (P08246 30-247 limits assumed): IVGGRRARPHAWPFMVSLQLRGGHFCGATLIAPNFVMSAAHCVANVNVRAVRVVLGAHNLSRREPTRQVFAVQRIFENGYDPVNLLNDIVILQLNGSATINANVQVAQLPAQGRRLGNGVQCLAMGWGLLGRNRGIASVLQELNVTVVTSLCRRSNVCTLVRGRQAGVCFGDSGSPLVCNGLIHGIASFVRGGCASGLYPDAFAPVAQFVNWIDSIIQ
# assayText: In vitro inhibition of elastase enzymatic activity (hydrolysis of Suc-Ala-Ala-Pro-LeupNA), Table II
# measurementParameters: human leucocyte (neutrophil) elastase from purulent sputum; 25° C.; pH 8.8; concentration in the final solution
experimentalReadout: IC50 (µM)

> print(dat)
                                   compound                                       tgt  assayresult
1  CCCC(=O)Oc1cc2c(s1)CCN(Cc1ccc(Cl)cc1)C2 [SR 26767]  human leucocyte elastase (Homo sapiens, UniProt P08246)          3.4

1. CC(C)(C)C(=O)Oc1cc2c(s1)CC[N+]([O-])(Cc1ccc(Cl)cc1)C2 (centres unmarked) [SR 26977]
2. CC(C)(C)C(=O)Oc1cc2c(o1)CC[N+]([O-])(Cc1ccccc1Cl)C2 (centres unmarked) [SR 26993]
Req: // pick min by IC50: 1 , 2 Answer by quoting the chosen item's label.
Resp: 1

###

Reported IC50 values, porcine pancreatic elastase (Sus scrofa, UniProt P00772).
Structures can show the parent of a compound that is named as a salt.
experimentalReadout: IC50 (µM)

Some entries whose results are on file:
> print(dat)
                                   compound  assayresult
1  CC(C)C(=O)Oc1cc2c(s1)CCNC2 [SR 26861, hydrochloride]          6.4
2  CC(C)(C)C(=O)Oc1cc2c(s1)C[N+]([O-])(Cc1ccccc1Cl)CC2 (stereo not drawn)          2.2
3  CC(=O)Oc1cc2c(s1)CCN(C(C(=O)N1CCCC1)c1ccccc1Cl)C2 (stereo not drawn)           32
4  CC(C)(C)C(=O)Oc1cc2c(s1)CCN(Cc1ccccc1)C2            9
5     CCCC(=O)Oc1cc2c(s1)CCN(Cc1ccccc1Cl)C2            2

A. CC(C)(C)C(=O)Oc1cc2c(s1)CC[N+]([O-])(Cc1ccccc1)C2 (stereo not drawn)
B. CCCC(=O)Oc1cc2c(s1)CC[N+]([O-])(Cc1ccccc1Cl)C2 (stereo not drawn)
Req: Could you kindly indicate whether A or B has the higher IC50 value? Answer by quoting the chosen item's label.
Resp: B

###

# tgt: human leucocyte elastase (Homo sapiens, UniProt P08246)
# Construct: human neutrophil elastase extracted from purulent sputum
# assayText: In vitro inhibition of elastase enzymatic activity (hydrolysis of Suc-Ala-Ala-Pro-LeupNA), Table II
# measurementParameters: human leucocyte (neutrophil) elastase from purulent sputum; 25° C.; pH 8.8; concentration in the final solution
pIC50: −log10 of the molar value.
experimentalReadout: pIC50

Some entries whose results are on file:
> print(dat)
                                   compound                                       tgt  assayresult
1     CC(C)C(=O)Oc1cc2c(s1)CCN(Cc1ccccc1)C2  human leucocyte elastase (Homo sapiens, UniProt P08246)         4.62
2     CCCC(=O)Oc1cc2c(s1)CCN(Cc1ccccc1Cl)C2  human leucocyte elastase (Homo sapiens, UniProt P08246)         5.46
3  CC(c1ccccc1)[N+]1([O-])CCc2sc(OC(=O)C(C)(C)C)cc2C1 (stereo not drawn)  human leucocyte elastase (Homo sapiens, UniProt P08246)         5.59
4  COc1ccc(C[N+]2([O-])CCc3sc(OC(=O)C(C)(C)C)cc3C2)cc1 (stereo not drawn)  human leucocyte elastase (Homo sapiens, UniProt P08246)         5.59
5  CC(C)(C)C(=O)Oc1cc2c(o1)CCN(Cc1ccccc1Cl)C2  human leucocyte elastase (Homo sapiens, UniProt P08246)         5.51

I. CC(C)C(=O)Oc1cc2c(s1)CC[N+]([O-])(Cc1ccccc1Cl)C2 (stereo not drawn)
II. CC(C)C(=O)Oc1cc2c(s1)CCN(Cc1ccc(Cl)cc1)C2
Req: Could you kindly indicate whether I or II has the higher pIC50 value? Answer by quoting the chosen item's label.
Resp: I
